biological target: HA-tagged human 5-HT4 receptor (Homo sapiens); construct: HA; expressed in transfected cells; host or cells: COS-7 cells (ATCC CRL-1651), transient transfection; assay: cAMP production, competition assay in antagonist mode vs serotonin, transfected COS-7 cells; format: cell-based; settings: Log(IC50), antagonist mode; Moy.; printed as Log(IC50), negative
Sequence (Q13639 whole entry): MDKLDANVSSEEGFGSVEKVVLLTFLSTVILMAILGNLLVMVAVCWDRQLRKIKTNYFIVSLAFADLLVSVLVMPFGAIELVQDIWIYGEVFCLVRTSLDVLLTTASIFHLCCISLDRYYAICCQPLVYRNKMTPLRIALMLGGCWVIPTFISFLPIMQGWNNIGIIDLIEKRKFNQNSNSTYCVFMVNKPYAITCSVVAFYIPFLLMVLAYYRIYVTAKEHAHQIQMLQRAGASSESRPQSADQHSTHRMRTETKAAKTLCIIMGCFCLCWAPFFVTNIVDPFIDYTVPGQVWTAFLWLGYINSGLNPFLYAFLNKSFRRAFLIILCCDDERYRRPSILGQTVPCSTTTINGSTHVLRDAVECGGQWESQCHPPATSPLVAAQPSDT

{"COMPOUND": "COc1cccc2onc(CCC3CCN(CC4CCCCC4)CC3)c12 [Compound 32a]", "TARGET DESC": "HA-tagged human 5-HT4 receptor (Homo sapiens)", "IC50 [nM]": 100}
{"COMPOUND": "COc1cccc2onc(OCC3CCN(CC(C)C)CC3)c12", "TARGET DESC": "HA-tagged human 5-HT4 receptor (Homo sapiens)", "IC50 [nM]": 5.01}

* * *

biological target: human 5-HT4R (5-HT4(b) receptor membranes) (Homo sapiens, UniProt Q13639); construct: purchased Millipore HTS110M; assay: h5-HT4R competition binding with [3H]-GR113808; settings: 10^−8 M compound; 0.2 nM [3H]-GR113808; read-out: h5-HT4R % inhibition at 10^−8 M (converted)
Sequence (Q13639 whole entry): as above
Catalogue of compounds with associated inhibition

{"COMPOUND": "CCOc1cccc2onc(CCC3CCN(CC4CCCCC4)CC3)c12 [Compound 32b]", "TARGET DESC": "human 5-HT4R (5-HT4(b) receptor membranes) (Homo sapiens, UniProt Q13639)", "UNIT ABBREV": "%", "inhibition": 16}
{"COMPOUND": "COc1cccc2onc(OCC3CCN(CC4CCCCC4)CC3)c12 [Compound 14]", "TARGET DESC": "human 5-HT4R (5-HT4(b) receptor membranes) (Homo sapiens, UniProt Q13639)", "UNIT ABBREV": "%", "inhibition": 99}
{"COMPOUND": "Oc1cccc2onc(CCC3CCN(CC4CCCCC4)CC3)c12 [Compound 33]", "TARGET DESC": "human 5-HT4R (5-HT4(b) receptor membranes) (Homo sapiens, UniProt Q13639)", "UNIT ABBREV": "%", "inhibition": 29}
{"COMPOUND": "c1ccc(CN2CCC(COc3noc4ccccc34)CC2)cc1 [Compound 12]", "TARGET DESC": "human 5-HT4R (5-HT4(b) receptor membranes) (Homo sapiens, UniProt Q13639)", "UNIT ABBREV": "%", "inhibition": 29}
{"COMPOUND": "c1cc(OC2CCCC2)c2c(CCC3CCN(CC4CCCCC4)CC3)noc2c1 [Compound 32d]", "TARGET DESC": "human 5-HT4R (5-HT4(b) receptor membranes) (Homo sapiens, UniProt Q13639)", "UNIT ABBREV": "%", "inhibition": 0}
{"COMPOUND": "c1ccc2c(CCC3CCN(CC4CCCCC4)CC3)noc2c1 [Compound 21]", "TARGET DESC": "human 5-HT4R (5-HT4(b) receptor membranes) (Homo sapiens, UniProt Q13639)", "UNIT ABBREV": "%", "inhibition": 4}
{"COMPOUND": "CC(C)CN1CCC(COc2noc3ccccc23)CC1 [Compound 13]", "TARGET DESC": "human 5-HT4R (5-HT4(b) receptor membranes) (Homo sapiens, UniProt Q13639)", "UNIT ABBREV": "%", "inhibition": 59}
{"COMPOUND": "c1ccc(COc2cccc3onc(CCC4CCN(CC5CCCCC5)CC4)c23)cc1 [Compound 32e]", "TARGET DESC": "human 5-HT4R (5-HT4(b) receptor membranes) (Homo sapiens, UniProt Q13639)", "UNIT ABBREV": "%", "inhibition": 0}
{"COMPOUND": "COc1cccc2onc(CCC3CCN(CC4CCCCC4)CC3)c12 [Compound 32a]", "TARGET DESC": "human 5-HT4R (5-HT4(b) receptor membranes) (Homo sapiens, UniProt Q13639)", "UNIT ABBREV": "%", "inhibition": 13}
{"COMPOUND": "CC(C)COc1cccc2onc(CCC3CCN(CC4CCCCC4)CC3)c12 [Compound 32c]", "TARGET DESC": "human 5-HT4R (5-HT4(b) receptor membranes) (Homo sapiens, UniProt Q13639)", "UNIT ABBREV": "%", "inhibition": 4}
{"COMPOUND": "c1ccc2c(OCC3CCN(CC4CCCCC4)CC3)noc2c1 [Compound 11]", "TARGET DESC": "human 5-HT4R (5-HT4(b) receptor membranes) (Homo sapiens, UniProt Q13639)", "UNIT ABBREV": "%", "inhibition": 67}
{"COMPOUND": "COc1cccc2onc(OCC3CCN(Cc4ccccc4)CC3)c12 [Compound 15]", "TARGET DESC": "human 5-HT4R (5-HT4(b) receptor membranes) (Homo sapiens, UniProt Q13639)", "UNIT ABBREV": "%", "inhibition": 94}
{"COMPOUND": "c1ccc(CN2CCC(CCc3noc4ccccc34)CC2)cc1 [Compound 22]", "TARGET DESC": "human 5-HT4R (5-HT4(b) receptor membranes) (Homo sapiens, UniProt Q13639)", "UNIT ABBREV": "%", "inhibition": 8}
{"COMPOUND": "CC(C)CN1CCC(CCc2noc3ccccc23)CC1 [Compound 23]", "TARGET DESC": "human 5-HT4R (5-HT4(b) receptor membranes) (Homo sapiens, UniProt Q13639)", "UNIT ABBREV": "%", "inhibition": 8}
{"COMPOUND": "COc1cccc2onc(OCC3CCN(CC(C)C)CC3)c12 [Compound 16]", "TARGET DESC": "human 5-HT4R (5-HT4(b) receptor membranes) (Homo sapiens, UniProt Q13639)", "UNIT ABBREV": "%", "inhibition": 100}
